Below, each entry is listed with its recorded Activity.
Molecular target: Human immunodeficiency virus type 1 reverse transcriptase (Human immunodeficiency virus 1) (UniProt Q72547)
Assay: Inhibition of recombinant HIV1 reverse transcriptase using 234-nt long RNA/18-mer DNA oligonucleotide as template/primer assessed as remaining activity at 50 uM preincubated for 15 mins followed by incubation with template/primer for 40 mins by liquid scintillation counting in presence of alpha[P33]-dCTP relative to control
The response must be a number in % with no trailing unit.

# molecule, Activity / %
data = [
    ("Cc1ccc2[nH]c(=O)c(CN(CCCO)C(=S)NC[C@@H]3CCCO3)cc2c1", 98),
    ("Cc1ccc(Nc2nc(NCC3CCCO3)nc(Nc3ccc(C)cc3)n2)cc1 (stereo in doubt; 8(n.p))", 59),
    ("c1coc(CNc2nc(NCc3ccco3)c3nc(NCc4ccco4)[nH]c3n2)c1", 92),
]

Tell me the measured Activity of Nc1c(NCCO)cc(Nc2ccccc2)c2c1C(=O)c1ccccc1C2=O , please.
90

---

Biological target: Human immunodeficiency virus type 1 reverse transcriptase (Human immunodeficiency virus 1) (UniProt Q72547)
Assay: Inhibition of recombinant HIV1 reverse transcriptase using 234-nt long RNA/18-mer DNA oligonucleotide as template/primer assessed as remaining activity at 200 uM preincubated for 15 mins followed by incubation with template/primer for 40 mins by liquid scintillation counting in presence of alpha[P33]-dCTP relative to control
Response field label takes yes when Activity is strictly below 90% and no in all other cases.

# smiles-str, classification
measured = [
    ("Nc1nc(COC(=O)c2c[nH]c3ccccc23)nc(Cc2ccc(F)cc2)n1", "yes"),
    ("COc1ccc(Nc2nc(Nc3ccc(OC)cc3)nc(NC3CCCC3)n2)cc1", "no"),
]

Record c1coc(CNc2nc(NCc3ccco3)c3nc(NCc4ccco4)[nH]c3n2)c1 : is its Activity strictly below 90%?
no

Record Cc1ccc2[nH]c(=O)c(CN(CCCO)C(=S)NC[C@@H]3CCCO3)cc2c1 : is its Activity strictly below 90%?
no

Record O=C1NC(=S)N(CCC2=CCCCC2)C(=O)/C1=C\NCCO : is its Activity strictly below 90%?
yes

---

Test system: Human immunodeficiency virus 1
Assay: Antiviral activity against HIV1 virus-like particles harboring wild type reverse transcriptase infected in human U2OS cells after 24 hrs by Renilla luciferase assay
Format: functional, organism-based
Conditions: u2os; read-out: IC50
Below, each entry is listed with its recorded pIC50.
pIC50 field: float, defined as -log10 of concentration (mol/L).

# annotated cases, reported pIC50 shown
# compound, pIC50
rows = [
    ("Cc1ccc(Nc2nc(NCC3CCCO3)nc(Nc3ccc(C)cc3)n2)cc1 (single isomer, unassigned; isomer 1)", 4.74),
    ("Cc1ccc(Nc2nc(NCC3CCCO3)nc(Nc3ccc(C)cc3)n2)cc1 (stereo in doubt; 8)", 4.80),
    ("Cc1ccc(Nc2nc(NCC3CCCO3)nc(Nc3ccc(C)cc3)n2)cc1 (single isomer, unassigned; isomer 2)", 4.49),
]

Tell me the measured pIC50 of Cc1ccc(Nc2nc(NCC3CCCO3)nc(Nc3ccc(C)cc3)n2)cc1 (stereo in doubt; 8(n.p)) , please.
6.48

---

Experiment: Cytotoxicity against human U2OS cells assessed as cell viability at 5 uM after 48 hrs relative to control
Type: cell-based
Conditions: U2OS cells, read-out: Activity
value-kind: viability at 48 h, 5 µM (%)
The response must be a number in % with no trailing unit.

Tell me the measured viability at 48 h, 5 µM of Nc1c(NCCO)cc(Nc2ccccc2)c2c1C(=O)c1ccccc1C2=O , please.
99

Tell me the measured viability at 48 h, 5 µM of CNc1nc(Nc2ccc(C)cc2)nc(Nc2ccc(C)cc2)n1 , please.
96

Tell me the measured viability at 48 h, 5 µM of COc1ccc(Nc2nc(Nc3ccc(OC)cc3)nc(NC3CCCC3)n2)cc1 , please.
87

Tell me the measured viability at 48 h, 5 µM of Cc1ccc(Nc2nc(NCC3CCCO3)nc(Nc3ccc(C)cc3)n2)cc1 (stereo in doubt; 8(n.p)) , please.
90

Tell me the measured viability at 48 h, 5 µM of Cc1ccc(Nc2nc(COc3ccc(Cl)cc3)nc(=N)[nH]2)cc1 , please.
93

Tell me the measured viability at 48 h, 5 µM of Cc1ccccc1Nc1nc(N)nc(CN(C)Cc2ccc(F)cc2)n1 , please.
96

---

Assay: Cytotoxicity against human U2OS cells assessed as reduction of cell viability after 48 hrs
Type: cell-based
value-kind: CC50 at 48 h

# annotated cases, reported CC50 at 48 h shown
# compound, CC50 at 48 h
measured = [
    ("Nc1nc(COC(=O)c2c[nH]c3ccccc23)nc(Cc2ccc(F)cc2)n1", "> 50 µM"),
    ("c1coc(CNc2nc(NCc3ccco3)c3nc(NCc4ccco4)[nH]c3n2)c1", "> 50 µM"),
    ("Cc1ccc(Nc2nc(NCC3CCCO3)nc(Nc3ccc(C)cc3)n2)cc1 (stereo in doubt; 8)", "> 50 µM"),
    ("Cc1ccccc1Nc1nc(Cn2ccc(C(F)(F)F)cc2=O)nc(=N)[nH]1", "> 50 µM"),
    ("COc1ccc(Nc2nc(Nc3ccc(OC)cc3)nc(NC3CCCC3)n2)cc1", "> 50 µM"),
]

Tell me the measured CC50 at 48 h of Nc1c(NCCO)cc(Nc2ccccc2)c2c1C(=O)c1ccccc1C2=O , please.
> 5 µM

Tell me the measured CC50 at 48 h of Cc1ccc2[nH]c(=O)c(CN(CCCO)C(=S)NC[C@@H]3CCCO3)cc2c1 , please.
> 50 µM

Tell me the measured CC50 at 48 h of Cc1ccc(Nc2nc(COc3ccc(Cl)cc3)nc(=N)[nH]2)cc1 , please.
> 50 µM

Tell me the measured CC50 at 48 h of CCOC(=O)c1[nH]c2ccc(F)cc2c1NC(=O)NC1CCCCC1 , please.
> 50 µM

Tell me the measured CC50 at 48 h of CNc1nc(Nc2ccc(C)cc2)nc(Nc2ccc(C)cc2)n1 , please.
> 5 µM

---

Target: Human immunodeficiency virus type 1 reverse transcriptase (Human immunodeficiency virus 1) (UniProt Q72547)
Test: Inhibition of recombinant HIV1 reverse transcriptase using 234-nt long RNA/18-mer DNA oligonucleotide as template/primer assessed as remaining activity at 50 uM preincubated for 15 mins followed by incubation with template/primer for 40 mins by liquid scintillation counting in presence of alpha[P33]-dCTP relative to control
value-kind: Activity (%)
The response must be a number in % with no trailing unit.

# annotated cases, reported Activity shown
# smiles-str, value-kind, experimental-result
measured = [
    ("Cc1ccccc1Nc1nc(N)nc(CN(C)Cc2ccc(F)cc2)n1", "Activity", 103),
    ("COc1ccc(Nc2nc(Nc3ccc(OC)cc3)nc(NC3CCCC3)n2)cc1", "Activity", 94),
    ("Cc1ccc(Nc2nc(N)nc(COC(=O)c3cnc4ccccc4n3)n2)cc1", "Activity", 82),
    ("CCOC(=O)c1[nH]c2ccc(F)cc2c1NC(=O)NC1CCCCC1", "Activity", 81),
]

Now look at this entry.
Tell me the measured Activity of Cc1ccccc1Nc1nc(Cn2ccc(C(F)(F)F)cc2=O)nc(=N)[nH]1 , please.
88

---

Below, each entry is listed with its recorded CC50 at 48 h.
Experiment: Cytotoxicity against human TZM-bl cells assessed as reduction of cell viability after 48 hrs
Assay type: cell-based

# annotated cases, reported CC50 at 48 h shown
# compound, CC50 at 48 h
data = [
    ("Cc1ccnc2c1NC(=O)c1cccnc1N2C1CC1 [NEVIRAPINE]", "> 100 µM"),
    ("Cc1ccc(Nc2nc(NCC3CCCO3)nc(Nc3ccc(C)cc3)n2)cc1 (single isomer, unassigned; isomer 2)", "> 50 µM"),
    ("Cc1ccc(Nc2nc(NCC3CCCO3)nc(NCC3CCCO3)n2)cc1 (stereo unspecified)", "> 50 µM"),
    ("Cc1ccc(Nc2nc(O)nc(Nc3ccc(C)cc3)n2)cc1", "> 12.5 µM"),
    ("Cc1ccc(Nc2nc(Nc3ccc(C)cc3)nc(Nc3ccc(C)cc3)n2)cc1", "> 50 µM"),
]

Now look at this entry.
Tell me the measured CC50 at 48 h of Cc1ccc(Nc2nc(N)nc(Nc3ccc(C)cc3)n2)cc1 , please.
57 µM

---

Below, each entry is listed with its recorded viability at 48 h, 50 µM.
Assay: Cytotoxicity against human U2OS cells assessed as cell viability at 50 uM after 48 hrs relative to control
Format: cell-based
Settings: U2OS cells, read-out: Activity
The response must be a number in % with no trailing unit.

# annotated cases, reported viability at 48 h, 50 µM shown
# compound, viability at 48 h, 50 µM (%)
records = [
    ("Cc1c(CCC(=O)NCC(=O)NCC(=O)O)c(=O)oc2c(C)c(O)ccc12", 99),
    ("CCCn1c(NCCN(CC)CC)nc2c1c(=O)[nH]c(=O)n2C", 101),
    ("CCOC(=O)c1[nH]c2ccc(F)cc2c1NC(=O)NC1CCCCC1", 103),
    ("Nc1c(NCCO)cc(Nc2ccccc2)c2c1C(=O)c1ccccc1C2=O", 42),
    ("COc1ccc(Nc2nc(Nc3ccc(OC)cc3)nc(NC3CCCC3)n2)cc1", 67),
    ("Cc1ccc(Nc2nc(N)nc(COC(=O)c3cnc4ccccc4n3)n2)cc1", 103),
]

Tell me the measured viability at 48 h, 50 µM of CNc1nc(Nc2ccc(C)cc2)nc(Nc2ccc(C)cc2)n1 , please.
46

Tell me the measured viability at 48 h, 50 µM of Cc1ccc(Nc2nc(NCC3CCCO3)nc(Nc3ccc(C)cc3)n2)cc1 (stereo in doubt; 8(n.p)) , please.
66

Tell me the measured viability at 48 h, 50 µM of c1coc(CNc2nc(NCc3ccco3)c3nc(NCc4ccco4)[nH]c3n2)c1 , please.
116

Tell me the measured viability at 48 h, 50 µM of Cc1ccc(Nc2nc(COc3ccc(Cl)cc3)nc(=N)[nH]2)cc1 , please.
76

Tell me the measured viability at 48 h, 50 µM of Cc1ccccc1Nc1nc(N)nc(CN(C)Cc2ccc(F)cc2)n1 , please.
84

Tell me the measured viability at 48 h, 50 µM of Nc1nc(COC(=O)c2c[nH]c3ccccc23)nc(Cc2ccc(F)cc2)n1 , please.
101

Tell me the measured viability at 48 h, 50 µM of Cc1ccc2[nH]c(=O)c(CN(CCCO)C(=S)NC[C@@H]3CCCO3)cc2c1 , please.
108

Tell me the measured viability at 48 h, 50 µM of Cc1ccccc1Nc1nc(Cn2ccc(C(F)(F)F)cc2=O)nc(=N)[nH]1 , please.
105

Tell me the measured viability at 48 h, 50 µM of O=C1NC(=S)N(CCC2=CCCCC2)C(=O)/C1=C\NCCO , please.
98
